EC50 values, listed per item
- measuredOn: Cannabinoid receptor 2 (Homo sapiens)
- Sequence (P34972 whole entry): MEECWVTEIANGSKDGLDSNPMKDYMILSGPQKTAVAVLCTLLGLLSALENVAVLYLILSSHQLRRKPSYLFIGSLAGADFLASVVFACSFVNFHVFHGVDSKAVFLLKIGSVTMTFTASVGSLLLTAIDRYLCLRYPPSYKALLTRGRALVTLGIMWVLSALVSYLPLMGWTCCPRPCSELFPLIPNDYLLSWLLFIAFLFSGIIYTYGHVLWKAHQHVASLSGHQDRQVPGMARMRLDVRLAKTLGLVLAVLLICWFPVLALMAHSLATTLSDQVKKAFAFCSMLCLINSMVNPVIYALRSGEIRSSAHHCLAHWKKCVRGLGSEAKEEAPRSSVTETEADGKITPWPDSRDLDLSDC
- assayNotes: Agonist activity at human CB2 receptor expressed in insect Sf9 cells assessed as effect on Eu-GTP binding
Respond numerically; units are nM and should not be typed.

Reference set (5 entries):
{"molecule": "Fc1ccc(-c2noc(C[C@H]3CCN(c4cnc5ccccc5c4)C3)n2)c(Cl)c1", "EC50 / nM": 140}
{"molecule": "CC(CCc1nc(-c2ccc(F)cc2Cl)no1)Nc1cnc2ccccc2c1 (racemic)", "EC50 / nM": 15}
{"molecule": "Fc1ccc(-c2noc(C[C@@H]3CCN(c4cnc5ccccc5c4)C3)n2)c(Cl)c1", "EC50 / nM": 86}
{"molecule": "CC(C)n1ccc2cc(N3CCC(c4nc(-c5ccc(F)cc5Cl)no4)CC3)cnc21", "EC50 / nM": 340}
{"molecule": "Fc1ccc(-c2noc(C3CCN(c4cnc5ccc(Cl)cc5c4)CC3)n2)c(Cl)c1", "EC50 / nM": 7}

Attention now turns to another entry.
Exam item: Item Fc1ccc(-c2noc([C@H]3CC[C@@H](Nc4cnc5ccccc5c4)C3)n2)c(Cl)c1 (racemic) has what recorded EC50?
Marked response: 1600
